Would you mind telling me the reported ECL signal of each entry?
System tested: T1, rHuman Erythropoietin R/Fc Chimera, CF (R&D Systems Cat#963-ER) (human, UniProt P19235 25-250)
T1 construct: Bought recombinant Fc chimera; also called EPO R; EPO R/Fc; Fc part of the bought chimera not given
T1 sequence (looked up): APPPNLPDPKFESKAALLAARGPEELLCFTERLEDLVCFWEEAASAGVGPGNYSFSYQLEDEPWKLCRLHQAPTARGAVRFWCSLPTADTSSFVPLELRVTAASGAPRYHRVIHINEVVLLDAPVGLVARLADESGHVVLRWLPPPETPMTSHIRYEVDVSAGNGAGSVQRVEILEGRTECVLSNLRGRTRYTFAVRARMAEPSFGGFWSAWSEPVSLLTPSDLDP
Procedure summary: ECL multispot (MSD), antigen spotted, Fab in solution;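 further: purified Fab incubated 1 h at 20 °C on antigen-spotted wells, bound Fab detected via TAG detection antibody, ECL compared with each well's blank, ratio of 4 or above scored as hit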
Reply with the value as a number alone.

Request: Entry Fab VH1-46_IGHD6-6*01_IGHJ1*01 S102A/S103P/S104F/H111F (APFF) & L6_IGKJ1*01 S30L (Fab, V domains shown, Fab; VH cloned into Plasmid A (CH1, His6 and Flag tags) and VL into Plasmid C (kappa CL); also called APFF / S30L) VH: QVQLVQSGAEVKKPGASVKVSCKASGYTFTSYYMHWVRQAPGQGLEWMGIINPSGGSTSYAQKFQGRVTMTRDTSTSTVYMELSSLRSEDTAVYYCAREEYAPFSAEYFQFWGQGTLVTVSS VL: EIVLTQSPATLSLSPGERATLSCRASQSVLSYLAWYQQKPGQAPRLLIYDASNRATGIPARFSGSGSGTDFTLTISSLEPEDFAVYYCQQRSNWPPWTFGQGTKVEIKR has what ECL signal?
Result: 540

Request: Entry Fab VH1-46_IGHD6-6*01_IGHJ1*01 S102A/S103P/S104F/H111F (APFF) & L6_IGKJ1*01 S30D (Fab, V domains shown, Fab; VH cloned into Plasmid A (CH1, His6 and Flag tags) and VL into Plasmid C (kappa CL); also called APFF / S30D) VH: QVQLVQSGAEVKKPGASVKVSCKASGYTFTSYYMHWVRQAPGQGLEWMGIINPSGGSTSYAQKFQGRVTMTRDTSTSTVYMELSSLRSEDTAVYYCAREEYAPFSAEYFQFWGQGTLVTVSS VL: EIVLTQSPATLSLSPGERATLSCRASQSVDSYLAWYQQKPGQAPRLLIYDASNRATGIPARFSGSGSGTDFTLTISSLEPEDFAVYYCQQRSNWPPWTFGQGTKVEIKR has what ECL signal?
Result: 496

Request: Entry Fab VH1-46_IGHD6-6*01_IGHJ1*01 S102A/S103P/S104F/H111F (APFF) & L6_IGKJ1*01 S28M (Fab, V domains shown, Fab; VH cloned into Plasmid A (CH1, His6 and Flag tags) and VL into Plasmid C (kappa CL); also called APFF / S28M) VH: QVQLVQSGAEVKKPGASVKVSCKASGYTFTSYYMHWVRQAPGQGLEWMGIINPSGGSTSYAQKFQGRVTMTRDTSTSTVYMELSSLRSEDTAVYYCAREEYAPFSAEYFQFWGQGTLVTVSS VL: EIVLTQSPATLSLSPGERATLSCRASQMVSSYLAWYQQKPGQAPRLLIYDASNRATGIPARFSGSGSGTDFTLTISSLEPEDFAVYYCQQRSNWPPWTFGQGTKVEIKR has what ECL signal?
Result: 360

Request: Entry Fab VH1-46_IGHD6-6*01_IGHJ1*01 S102A/S103P/S104F/H111F (APFF) & L6_IGKJ1*01 S28W (Fab, V domains shown, Fab; VH cloned into Plasmid A (CH1, His6 and Flag tags) and VL into Plasmid C (kappa CL); also called APFF / S28W) VH: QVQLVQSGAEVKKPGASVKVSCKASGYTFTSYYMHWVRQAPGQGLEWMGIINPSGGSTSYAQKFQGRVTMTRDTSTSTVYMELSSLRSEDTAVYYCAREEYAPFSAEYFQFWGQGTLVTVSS VL: EIVLTQSPATLSLSPGERATLSCRASQWVSSYLAWYQQKPGQAPRLLIYDASNRATGIPARFSGSGSGTDFTLTISSLEPEDFAVYYCQQRSNWPPWTFGQGTKVEIKR has what ECL signal?
Result: 489

Request: Entry Fab VH1-46_IGHD6-6*01_IGHJ1*01 S102A/S103P/S104F/H111F (APFF) & L6_IGKJ1*01 S28R (Fab, V domains shown, Fab; VH cloned into Plasmid A (CH1, His6 and Flag tags) and VL into Plasmid C (kappa CL); also called APFF / S28R) VH: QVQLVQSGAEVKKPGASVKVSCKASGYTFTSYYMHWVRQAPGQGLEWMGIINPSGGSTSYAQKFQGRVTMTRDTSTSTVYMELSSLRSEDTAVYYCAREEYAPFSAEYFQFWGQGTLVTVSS VL: EIVLTQSPATLSLSPGERATLSCRASQRVSSYLAWYQQKPGQAPRLLIYDASNRATGIPARFSGSGSGTDFTLTISSLEPEDFAVYYCQQRSNWPPWTFGQGTKVEIKR has what ECL signal?
Result: 542

Request: Entry Fab VH1-46_IGHD6-6*01_IGHJ1*01 S102A/S103P/S104F/H111F (APFF) & L6_IGKJ1*01 S28N (Fab, V domains shown, Fab; VH cloned into Plasmid A (CH1, His6 and Flag tags) and VL into Plasmid C (kappa CL); also called APFF / S28N) VH: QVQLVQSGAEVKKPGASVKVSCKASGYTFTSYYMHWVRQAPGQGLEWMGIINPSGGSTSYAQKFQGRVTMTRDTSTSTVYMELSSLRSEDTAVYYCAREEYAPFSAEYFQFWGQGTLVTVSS VL: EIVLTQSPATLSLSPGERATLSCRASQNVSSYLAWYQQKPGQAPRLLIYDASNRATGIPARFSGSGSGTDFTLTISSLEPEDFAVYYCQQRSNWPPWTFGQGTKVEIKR has what ECL signal?
Result: 440

Request: Entry Fab VH1-46_IGHD6-6*01_IGHJ1*01 S102A/S103P/S104F/H111F (APFF) & L6_IGKJ1*01 S28I (Fab, V domains shown, Fab; VH cloned into Plasmid A (CH1, His6 and Flag tags) and VL into Plasmid C (kappa CL); also called APFF / S28I) VH: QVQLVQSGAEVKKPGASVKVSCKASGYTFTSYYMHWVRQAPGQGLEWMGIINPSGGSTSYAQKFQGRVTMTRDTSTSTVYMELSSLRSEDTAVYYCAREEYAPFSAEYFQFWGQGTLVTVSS VL: EIVLTQSPATLSLSPGERATLSCRASQIVSSYLAWYQQKPGQAPRLLIYDASNRATGIPARFSGSGSGTDFTLTISSLEPEDFAVYYCQQRSNWPPWTFGQGTKVEIKR has what ECL signal?
Result: 450

Request: Entry Fab VH1-46_IGHD6-6*01_IGHJ1*01 S102A/S103P/S104F/H111F (APFF) & L6_IGKJ1*01 S30C (Fab, V domains shown, Fab; VH cloned into Plasmid A (CH1, His6 and Flag tags) and VL into Plasmid C (kappa CL); also called APFF / S30C) VH: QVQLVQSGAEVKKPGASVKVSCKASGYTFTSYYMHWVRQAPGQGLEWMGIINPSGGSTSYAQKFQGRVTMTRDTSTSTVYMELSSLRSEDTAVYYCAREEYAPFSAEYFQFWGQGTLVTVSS VL: EIVLTQSPATLSLSPGERATLSCRASQSVCSYLAWYQQKPGQAPRLLIYDASNRATGIPARFSGSGSGTDFTLTISSLEPEDFAVYYCQQRSNWPPWTFGQGTKVEIKR has what ECL signal?
Result: 1790

Request: Entry Fab VH1-46_IGHD6-6*01_IGHJ1*01 S102A/S103P/S104F/H111F (APFF) & L6_IGKJ1*01 S28H (Fab, V domains shown, Fab; VH cloned into Plasmid A (CH1, His6 and Flag tags) and VL into Plasmid C (kappa CL); also called APFF / S28H) VH: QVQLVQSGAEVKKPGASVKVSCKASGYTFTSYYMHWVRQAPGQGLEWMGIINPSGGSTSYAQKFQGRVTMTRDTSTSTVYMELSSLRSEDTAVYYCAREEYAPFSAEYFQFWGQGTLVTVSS VL: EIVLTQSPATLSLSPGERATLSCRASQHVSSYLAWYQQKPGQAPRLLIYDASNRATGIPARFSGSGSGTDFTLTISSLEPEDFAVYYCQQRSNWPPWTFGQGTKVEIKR has what ECL signal?
Result: 517

Request: Entry Fab VH1-46_IGHD6-6*01_IGHJ1*01 S102A/S103P/S104F/H111F (APFF) & L6_IGKJ1*01 S28E (Fab, V domains shown, Fab; VH cloned into Plasmid A (CH1, His6 and Flag tags) and VL into Plasmid C (kappa CL); also called APFF / S28E) VH: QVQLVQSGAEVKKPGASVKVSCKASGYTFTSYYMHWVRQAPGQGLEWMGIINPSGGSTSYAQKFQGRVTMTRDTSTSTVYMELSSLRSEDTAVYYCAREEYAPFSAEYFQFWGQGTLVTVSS VL: EIVLTQSPATLSLSPGERATLSCRASQEVSSYLAWYQQKPGQAPRLLIYDASNRATGIPARFSGSGSGTDFTLTISSLEPEDFAVYYCQQRSNWPPWTFGQGTKVEIKR has what ECL signal?
Result: 513
